Test system: K-562 leukemia
Assay: NCI tumour cell line growth inhibition, 48 h; in the data active means GI50 below about 0.43 µM; inactive means the rest
*1 amine or outer side, *2 acyl side, *3 side chain or, on linkers, in order; H or OH if unused. Where a SMILES comes first, the peptide text is derived from it. Bridges are numbered along the chain shown (N, C = ends). [ ]: non-standard residue; d: D form. The star is where a group is joined. Phe(3,5-F2) = N[C@@H](Cc1cc(F)cc(F)c1)C(=O)O; Pro(4R-Me) = C[C@H]1CN[C@H](C(=O)O)C1; aThr = C[C@H](O)[C@H](N)C(=O)O; Pip = O=C(O)[C@@H]1CCCCN1; X10 = Fc1cc(C2CC2)ccc1N*; CO = O=C([*:1])[*:2]
Outcome field: choose from Y = active, N = inactive

Answered examples (5):
{"columns": ["compound", "classification"],
 "data": [
  ["Nc1ccccc1C#C/C=C\\C#Cc1ccccc1OC(F)(F)F", "N"],
  ["C[C@@H]1C[C@H]2C(=O)O[C@@H](C)[C@H](NC(=O)[C@H](Cc3cc(F)cc(F)c3)NC(=O)Nc3ccc(C4CC4)cc3F)C(=O)N3CCC[C@H]3C(=O)N3CCCC[C@H]3C(=O)N[C@@H](C)C(=O)N2C1 ({X10-CO}-[Phe(3,5-F2)][aThr]P[Pip]A[Pro(4R-Me)]; ester 2-C)", "Y"],
  ["CC(=O)[CH-]C(=O)c1ccccc1.CC(=O)[CH-]C(=O)c1ccccc1.CN(C)c1ccc([O-])cc1.CN(C)c1ccc([O-])cc1.Cl.[Ti+4]", "N"],
  ["O=C(Nc1ccccc1)c1c(O)[nH]c(=S)[nH]c1=O", "N"],
  ["O=C(CCN1CCCCC1)C(=Cc1ccccc1)C(=O)CCN1CCCCC1", "N"]
]}

QUERY: Hello, I am checking results. What call was entered for `CCC(=O)[C@H](C)[C@@H](OC(=O)[C@H](C)CC)[C@H](C)[C@H]1OC(CC)=C(C)C(=O)[C@@H]1C` ?
RESULT: N

QUERY: Hi, do you know how CN1CCCCC1CCN1c2ccccc2Sc2ccc(Cl)cc21 (stereo not drawn) came out in this test?
RESULT: N

QUERY: Which outcome was entered for the compound `Cc1cc(-c2nc(C(=O)Nc3cc4oc(N5CCOCC5)nc4nc3N3CC[C@@H](O)C3)co2)ccn1` in this test?
RESULT: N

* * *

Tested on: A498 renal
Assay: NCI tumour cell line growth inhibition, 48 h
Known GI50 of a selection of molecules

Answered examples (6):
{"columns": ["smiles-representation", "GI50"],
 "data": [
  ["Nc1ccccc1C#C/C=C\\C#Cc1ccccc1OC(F)(F)F", "3.93 µM"],
  ["FC(F)(F)c1cccc(Nc2nc(-c3ccccc3)nc3ncccc23)c1", "1.7 µM"],
  ["Cc1ccc(CN2CCC(C(=O)Nc3ccc(-c4cc5ccccc5[nH]4)cc3)CC2)o1", "4.04 µM"],
  ["O=C1NC(=NCCc2cccc(F)c2)S/C1=C\\c1ccc2ncccc2c1", "3.89 µM"],
  ["CCC[CH2][Sn]([CH2]CCC)([S]c1cccc2cccnc12)[S]c1cccc2cccnc12", "0.254 µM"],
  ["COc1ccc2c(c1)sc1nc(-c3ccccc3)c(-c3cccc4ccccc34)n12", "0.601 µM"]
]}

molecule `CC(=O)[CH-]C(=O)c1ccccc1.CC(=O)[CH-]C(=O)c1ccccc1.CN(C)c1ccc([O-])cc1.CN(C)c1ccc([O-])cc1.Cl.[Ti+4]` , GI50 observed: 31.1 µM

* * *

Tested on: CAKI-1 renal
Assay: NCI tumour cell line growth inhibition, 48 h; in the data active means GI50 below about 0.43 µM; inactive means the rest
One label from this list, please: active, inactive

{"columns": ["molecule", "classification"],
 "data": [
  ["CC1CCc2nc[nH]c(=O)c21 (stereo not given)", "inactive"],
  ["Cc1ccc(NC(=O)Nc2ccc(-c3cccnc3)cc2N2CCC(CO)CC2)cc1", "inactive"],
  ["C=C(C)C(OC)C(O)CC1(C)CC(O)CC(C)(C2CCC3OC(C4(C)CCC(Br)C(C)(C)O4)CCC3(C)O2)O1 (stereo not given)", "inactive"]
]}

QUERY: What call does the record list for CC(=O)OC1OC([C@@H]2c3cccc(O)c3C(=O)c3c(O)cc(C)cc32)C(O)C(O)C1O (stereo not given in full) ?
RESULT: active

QUERY: Name the outcome recorded for `O=C(CCN1CCCCC1)C(=Cc1ccccc1)C(=O)CCN1CCCCC1` in the assay.
RESULT: inactive

QUERY: Returns: the outcome recorded for `C=CC(=O)Nc1cc(Nc2ncc(C(=O)OC(C)C)c(-c3cn(C)c4ccccc34)n2)c(OC)cc1N(C)CCN(C)C` in this assay.
RESULT: inactive

* * *

Measured TGI of individual entries
Test system: OVCAR-3 ovarian
Assay: NCI tumour cell line growth inhibition, 48 h

{"columns": ["compound", "result"],
 "data": [
  ["COc1ccc2cc(NC(=O)N/N=C\\c3ccc([N+](=O)[O-])cc3)ccc2c1", "> 100 µM"]
]}

The recorded TGI for entry CC(=O)OC1OC([C@@H]2c3cccc(O)c3C(=O)c3c(O)cc(C)cc32)C(O)C(O)C1O (stereo not given in full) equals 0.0485 µM

The compound listed as `Cc1ccccc1C(=O)N1CCc2c([nH]c3ccccc23)C1` has a reported TGI of 74.1 µM

Input `CC(C)(C)N1CSC(=S)N(Cc2ccco2)C1` . Output TGI: 4.94 µM

TGI in this record for `O=C1/C(=C/c2ccccc2)N=C2Sc3c(nc[nH]c3=O)N12` : > 100 µM

Field TGI (entry CCOC1Oc2ccccc2C(=O)/C1=C/Nc1ccc(C(C)=O)cc1 (stereo not given) ) reads 43.8 µM

* * *

Tested on: A549 NSCLC
Assay: NCI tumour cell line growth inhibition, 48 h; in the data active means GI50 below about 0.43 µM; inactive means the rest
I would appreciate it if you answered using one of these outcomes: Yes (active), No (inactive)

QUERY: What was the test verdict on `O=C(NC(=O)c1ccccc1[N+](=O)[O-])Nc1ccc(Oc2ncc(Br)cn2)c(Cl)c1` ?
RESULT: Yes

QUERY: What is the recorded call for this compound in the test? `Cc1ccc(CN2CCC(C(=O)Nc3ccc(-c4cc5ccccc5[nH]4)cc3)CC2)o1`
RESULT: No

QUERY: Dear colleague, could you share the recorded outcome for `Cn1cc(C2=C(c3c4n(c5ccccc35)CCCCC4)C(=O)NC2=O)c2ccccc21` when you have a moment?
RESULT: No

QUERY: Per the assay record, what outcome was assigned to `CC(=O)[CH-]C(=O)c1ccccc1.CC(=O)[CH-]C(=O)c1ccccc1.CN(C)c1ccc([O-])cc1.CN(C)c1ccc([O-])cc1.Cl.[Ti+4]` ?
RESULT: No

* * *

Test system: HOP-92 NSCLC
Experiment: NCI tumour cell line growth inhibition, 48 h
quantity: TGI (µM)
Could you give me the number in µM? Just the number is fine.

TGI measured on `Fc1ccc(NC(=S)SCc2ccc3c(c2)OCO3)cc1F` = 88.9

Note to self: TGI recorded for `CCCCC#C[I+]c1ccccc1` was 24.1

Briefly, TGI measured for `Nc1ccccc1C#C/C=C\C#Cc1ccccc1OC(F)(F)F` : 26.4

* * *

Test system: HCT-116 colon
Assay: NCI tumour cell line growth inhibition, 48 h
The entries below come with measured TGI values attached.

{"columns": ["compound", "tgt", "TGI"],
 "data": [
  ["CC(=O)OC1OC([C@@H]2c3cccc(O)c3C(=O)c3c(O)cc(C)cc32)C(O)C(O)C1O (stereo partly specified)", "HCT-116 colon", "1.2 µM"]
]}

Let us examine a further case.
Given item `COc1cccc(-c2cc(-c3cccc(NS(C)(=O)=O)c3)nc(N)c2C#N)c1O` , the value recorded as its TGI is > 100 µM

* * *

Test system: RPMI-8226 leukemia
Assay: NCI tumour cell line growth inhibition, 48 h; in the data active means GI50 below about 0.43 µM; inactive means the rest
*1 amine or outer side, *2 acyl side, *3 side chain or, on linkers, in order; H or OH if unused. Where a SMILES comes first, the peptide text is derived from it. Bridges are numbered along the chain shown (N, C = ends). [ ]: non-standard residue; d: D form. The star is where a group is joined. Phe(3,5-F2) = N[C@@H](Cc1cc(F)cc(F)c1)C(=O)O; Pro(4R-Me) = C[C@H]1CN[C@H](C(=O)O)C1; aThr = C[C@H](O)[C@H](N)C(=O)O; Pip = O=C(O)[C@@H]1CCCCN1; X10 = Fc1cc(C2CC2)ccc1N*; CO = O=C([*:1])[*:2]
Hi there, use one of these labels in your reply, thanks! active, inactive

{"columns": ["molecule", "tgt", "classification"],
 "data": [
  ["C[C@@H]1C[C@H]2C(=O)O[C@@H](C)[C@H](NC(=O)[C@H](Cc3cc(F)cc(F)c3)NC(=O)Nc3ccc(C4CC4)cc3F)C(=O)N3CCC[C@H]3C(=O)N3CCCC[C@H]3C(=O)N[C@@H](C)C(=O)N2C1 ({X10-CO}-[Phe(3,5-F2)][aThr]P[Pip]A[Pro(4R-Me)]; ester 2-C)", "RPMI-8226 leukemia", "active"],
  ["O=C(Nc1ccc(F)cc1)Nc1ccc(Cl)c([N+](=O)[O-])c1", "RPMI-8226 leukemia", "inactive"],
  ["NS(=O)(=O)OC[C@@H]1C[C@@H](n2ccc3c(NC4CCc5ccccc54)ncnc32)C[C@@H]1O (stereo not given in full)", "RPMI-8226 leukemia", "inactive"],
  ["OCCN(CCO)c1ncnc2c1ncn2Cc1ccc(CCl)cc1", "RPMI-8226 leukemia", "inactive"]
]}

Query molecule follows.
QUERY: Check the results log: what was the call for `NC(N)=NS(=O)(=O)c1ccc(Nc2c3ccccc3nc3c(C(=O)NCCO)cccc23)cc1` ?
RESULT: inactive
